measurement name: melting point

CC(C)(C)c1ccc(Cn2cc(C(=O)C(=O)O)c3cc(-c4ccc(Cl)cc4)ccc32)cc1
183 to 184 °C
O=C(O)C(=O)c1cn(Cc2ccccc2)c2ccc(-c3ccc(F)c(Cl)c3)cc12
145 to 146 °C (dec.)
O=C(O)C(=O)c1cn(Cc2ccc(F)cc2)c2ccc(-c3ccccc3)cc12
165 to 166 °C

Field: next compound
Returns the measured melting point for the input compound. Input: `Cn1cc(C(=O)C(=O)O)c2ccc(-c3ccc(C(F)(F)F)cc3)cc21`
256 to 257 °C (dec.)

----------
measurement name: melting point

# count of solved cases: 3
Cc1cccc(-c2ccc3c(c2)c(CC(=O)O)cn3Cc2ccc(C(C)(C)C)cc2)c1
91 to 92 °C
Cc1ccc(Cn2c(CO)c(C(=O)C(=O)[O-])c3cc(-c4ccc(OC(F)(F)F)cc4)ccc32)cc1.[K+]
248 to 249.5 °C
CCn1cc(C(=O)C(=O)O)c2ccc(-c3ccc(C(F)(F)F)cc3)cc21
247 to 248 °C

Consider the record given below.
What value of melting point has been reported for the following molecule? `O=C(O)C(=O)c1cn(Cc2ccccc2)c2cccc(-c3ccc(C(F)(F)F)cc3)c12`
183 to 184 °C
